# TARGET DESC: Estrogen receptor (Homo sapiens)
# PROTOCOL: qHTS assay for small molecule antagonists of estrogen receptor alpha signaling (AID 588513)
# SETTINGS: ER-alpha-UAS-bla HEK293, beta-lactamase ratio, antagonist mode; series mostly up to 76.9 µM
Results filed as inconclusive are left out. Calls of active or inactive are those of the source. Calls follow the shape of the dose curve; as a rule, active = well fitted curve in the direction sought with a large enough effect in the signal ratio, with a control signal flat (not every such curve was filed as active); inconclusive = small, poorly fitted or top-dose-only effect, or effect the other way, or a change in a side signal; inactive = no such curve, though single readings can be large or run the other way; the % refers to the signal ratio.
Bench note: report the call from active, inactive

**Query** Field: outcome | Entry: CN(C)c1ccc(N(C)C)cc1
**Result** inactive

---
**Query** Field: outcome | Entry: CC(C)Br
**Result** inactive

**Query** Field: outcome | Entry: CC(C)(COCC1CO1)COCC1CO1 (stereo not drawn)
**Result** inactive

**Query** Field: outcome | Entry: [N-]=[N+]=[N-]
**Result** inactive

* * *

# Test system: CP185
# PROTOCOL: qHTS profiling for inhibitors of Plasmodium falciparum proliferation (AID 504749); also: nearly all actives have a fitted effect of over 60% in size
# SETTINGS: P. falciparum in erythrocytes, SYBR Green DNA, 72 h; series mostly up to 28.7 µM
Records with an inconclusive call do not appear. Active and inactive are the calls of the source. Calls come from the whole dose curve; as a rule, active = well fitted inhibition curve with a large enough effect; inconclusive = small, poorly fitted or top-dose-only effect; inactive = flat fitted curve, though single readings scatter.
Bench note: report the call from Y = active, N = inactive

Solved cases below.
**Query** Field: outcome | Entry: C[C@@H](Cc1ccc(O)cc1)NC[C@@H](O)c1cc(O)cc(O)c1
**Result** N

**Query** Field: outcome | Entry: C[C@@H]1O[C@@H](O[C@H]2C[C@@H](O)[C@@]3(CO)[C@H]4[C@H](O)C[C@]5(C)[C@@H](C6=CC(=O)OC6)CC[C@]5(O)[C@H]4CC[C@@]3(O)C2)[C@@H](O)[C@H](O)[C@H]1O
**Result** N

**Query** Field: outcome | Entry: C[N+]1(C)C2CC[C@H]1CC(OC(=O)[C@@H](CO)c1ccccc1)C2 (some centres undefined)
**Result** N

Alright, here's another compound for you.
**Query** Field: outcome | Entry: C=C[C@@H]1CN2CC[C@H]1C[C@H]2[C@H](O)c1ccnc2ccccc12
**Result** Y

* * *

# TARGET DESC: Estrogen receptor (Homo sapiens) (UniProt P03372)
# Sequence (P03372 whole entry, looked up): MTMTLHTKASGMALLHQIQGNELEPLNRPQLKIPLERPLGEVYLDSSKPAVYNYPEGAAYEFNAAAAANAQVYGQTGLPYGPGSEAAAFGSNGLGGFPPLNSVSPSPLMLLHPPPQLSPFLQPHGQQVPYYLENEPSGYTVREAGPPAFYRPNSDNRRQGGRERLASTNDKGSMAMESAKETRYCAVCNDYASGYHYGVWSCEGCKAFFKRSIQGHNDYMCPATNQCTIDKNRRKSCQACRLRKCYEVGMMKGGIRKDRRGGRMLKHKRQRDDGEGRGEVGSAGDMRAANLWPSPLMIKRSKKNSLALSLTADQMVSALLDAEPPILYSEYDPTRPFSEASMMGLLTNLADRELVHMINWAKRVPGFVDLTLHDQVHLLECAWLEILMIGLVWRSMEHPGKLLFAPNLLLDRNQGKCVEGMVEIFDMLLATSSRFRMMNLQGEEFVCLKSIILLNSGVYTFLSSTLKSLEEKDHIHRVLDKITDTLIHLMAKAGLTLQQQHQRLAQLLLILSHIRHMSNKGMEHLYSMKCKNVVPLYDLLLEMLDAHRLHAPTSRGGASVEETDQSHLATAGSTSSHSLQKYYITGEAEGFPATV
# PROTOCOL: qHTS assay for small molecule antagonists of estrogen receptor alpha signaling (AID 588513)
# SETTINGS: ER-alpha-UAS-bla HEK293, beta-lactamase ratio, antagonist mode; series mostly up to 76.9 µM
Records with an inconclusive call do not appear. The source made the active and inactive calls. The call rests on the fitted dose curve; in most records, active means well fitted curve in the direction sought with a large enough effect in the signal ratio, with a control signal flat (not every such curve was filed as active); inconclusive means small, poorly fitted or top-dose-only effect, or effect the other way, or a change in a side signal; inactive means no such curve, though single readings can be large or run the other way; the % refers to the signal ratio.
ENDPOINT: outcome

Reference set (5 entries):
**Query** Report outcome on Estrogen receptor (Homo sapiens) (UniProt P03372) for this entry: Cc1ccc([N+](=O)[O-])cc1
**Result** inactive

**Query** Report outcome on Estrogen receptor (Homo sapiens) (UniProt P03372) for this entry: C=CCCl
**Result** inactive

**Query** Report outcome on Estrogen receptor (Homo sapiens) (UniProt P03372) for this entry: OCCOCCO
**Result** inactive

**Query** Report outcome on Estrogen receptor (Homo sapiens) (UniProt P03372) for this entry: N#CCBr
**Result** inactive

**Query** Report outcome on Estrogen receptor (Homo sapiens) (UniProt P03372) for this entry: C[N+](=O)[O-]
**Result** inactive

---
**Query** Report outcome on Estrogen receptor (Homo sapiens) (UniProt P03372) for this entry: Clc1ccc(C(Cl)(Cl)Cl)cc1Cl
**Result** inactive

**Query** Report outcome on Estrogen receptor (Homo sapiens) (UniProt P03372) for this entry: O=[N+]([O-])c1ccccc1-c1ccccc1
**Result** inactive

**Query** Report outcome on Estrogen receptor (Homo sapiens) (UniProt P03372) for this entry: ClP(Cl)(Cl)(Cl)Cl
**Result** inactive

**Query** Report outcome on Estrogen receptor (Homo sapiens) (UniProt P03372) for this entry: ClCc1ccccc1
**Result** inactive

**Query** Report outcome on Estrogen receptor (Homo sapiens) (UniProt P03372) for this entry: Nc1ccccc1-c1ccccc1
**Result** inactive

**Query** Report outcome on Estrogen receptor (Homo sapiens) (UniProt P03372) for this entry: Oc1cccc(Cl)c1
**Result** inactive

* * *

# PROTOCOL: Cell Viability - LYMP2-013 (AID 970);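 also: cells exposed to compound for 24 h at 37 °C; nearly all actives have a fitted effect of over 55% in size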
# SETTINGS: LYMP2-013 lymphoblastoid cells viability; series mostly up to 92.2 µM
# Source text: NIH Chemical Genomics Center [NCGC] NIH Molecular Libraries Screening Centers Network [MLSCN] National Institutes of Environmental Health Sciences [NIEHS] National Toxicology Program [NTP] We have developed a 1536-well cell-based assay for quantitative high throughput screening (qHTS) against a number of cell lines to determine in vitro cytotoxicity of small molecules. […] 8. Detection; Luminescence; Viewlux plate reader […]
Results filed as inconclusive are left out. The source made the active and inactive calls. Calls come from the whole dose curve; as a rule, active = well fitted cell-killing curve with a large enough effect; inconclusive = small, poorly fitted or top-dose-only effect; inactive = flat fitted curve, though single readings scatter.
Bench note: report the call from active, inactive

Solved cases below.
**Query** Field: outcome | Entry: OC[P+](CO)(CO)CO
**Result** active

**Query** Field: outcome | Entry: Cc1cccc(C)c1N
**Result** inactive

**Query** Field: outcome | Entry: N#C/C(N)=C(/N)C#N
**Result** inactive

**Query** Field: outcome | Entry: BrCC(Br)C1CCC(Br)C(Br)C1 (stereo unspecified)
**Result** inactive

**Query** Field: outcome | Entry: Nc1cc(Cl)ccc1Cl
**Result** inactive

**Query** Field: outcome | Entry: ClC(Br)Br
**Result** inactive

**Query** Field: outcome | Entry: C/C=C/CC#N
**Result** inactive

**Query** Field: outcome | Entry: Cl/C=C/Cl
**Result** inactive

**Query** Field: outcome | Entry: CCC[N+](=O)[O-]
**Result** inactive

**Query** Field: outcome | Entry: C=CCOCC1CO1 (stereo unspecified)
**Result** inactive

---
**Query** Field: outcome | Entry: O=[N+]([O-])c1c(Cl)c(Cl)c(Cl)c(Cl)c1Cl
**Result** inactive

**Query** Field: outcome | Entry: CCCCC(CC)COC(=O)c1ccc(C(=O)OCC(CC)CCCC)c(C(=O)OCC(CC)CCCC)c1 (stereo unspecified)
**Result** inactive

**Query** Field: outcome | Entry: Nc1c(Br)cc([N+](=O)[O-])cc1[N+](=O)[O-]
**Result** inactive

**Query** Field: outcome | Entry: Clc1ccc(C(c2ccccc2Cl)C(Cl)(Cl)Cl)cc1 (stereo unspecified)
**Result** inactive

**Query** Field: outcome | Entry: CN(C)C(=O)Cl
**Result** inactive

**Query** Field: outcome | Entry: O=C(O)C(Cl)(Cl)Br
**Result** inactive

* * *

# PROTOCOL: Cell Viability - LYMP2-012 (AID 982);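 also: cellular ATP by luciferase luminescence where a drop means cytotoxicity; cells exposed to compound for one day before reading; nearly all actives have a fitted effect of over 55% in size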
# SETTINGS: LYMP2-012 lymphoblastoid cell viability qHTS; series mostly up to 92.2 µM
Records with an inconclusive call do not appear. Active and inactive are the calls of the source. The call rests on the fitted dose curve; in most records, active means well fitted cell-killing curve with a large enough effect; inconclusive means small, poorly fitted or top-dose-only effect; inactive means flat fitted curve, though single readings scatter.
Bench note: report the call from active, inactive

**Query** Field: outcome | Entry: Cc1ccc(N)cc1N
**Result** inactive

**Query** Field: outcome | Entry: Cl/C=C/CCl
**Result** inactive

**Query** Field: outcome | Entry: CCC#N
**Result** inactive

**Query** Field: outcome | Entry: O=[N+]([O-])c1ccccc1O
**Result** inactive

**Query** Field: outcome | Entry: CCOP(=S)(OCC)Oc1nc(Cl)c(Cl)cc1Cl
**Result** inactive

**Query** Field: outcome | Entry: Clc1ccccc1
**Result** inactive

**Query** Field: outcome | Entry: CN(C)c1ccc(N=Nc2ccccc2)cc1
**Result** inactive

**Query** Field: outcome | Entry: CCCCOCC1CO1 (stereo not drawn)
**Result** inactive

Alright, here's another molecule for you.
**Query** Field: outcome | Entry: N#CC(O)c1ccccc1 (stereo not drawn)
**Result** inactive

* * *

# PROTOCOL: qHTS assay for small molecule disruptors of the mitochondrial membrane potential - 1 hr assay (AID 651754); also: nearly all actives have a fitted effect of over 35% in size
# SETTINGS: series mostly up to 92.2 µM
Records with an inconclusive call do not appear. Active and inactive are the calls of the source. The call rests on the fitted dose curve.
Bench note: report the call from y = active, n = inactive

**Query** Field: outcome | Entry: [O-][Cl+2]([O-])O
**Result** n

---
**Query** Field: outcome | Entry: CC(=O)NNc1ccccc1
**Result** n

**Query** Field: outcome | Entry: Oc1cc(Cl)c(Cl)c(Cl)c1
**Result** y

* * *

# TARGET DESC: Tumor necrosis factor (Homo sapiens)
# PROTOCOL: qHTS assay to identify small molecules that stimulate Tumor Necrosis Factor-alpha (TNF-alpha) secretion (AID 651757)
# SETTINGS: Human cells, HTRF 665/615 ratio; series mostly up to 92.2 µM
Results filed as inconclusive are left out. Activity calls are given as the source filed them. The call rests on the fitted dose curve; in most records, active means well fitted curve in the direction sought with a large enough effect in the signal ratio; inconclusive means small, poorly fitted or top-dose-only effect, or a change in a side signal; inactive means no such curve, though single readings can be large or run the other way; the % refers to the signal ratio.
ENDPOINT: outcome

Reference set (5 entries):
**Query** Kindly indicate its recorded outcome. Item: CC(=O)[O-].CC(=O)[O-].CC(=O)[O-].[Cr+3]
**Result** inactive

**Query** Kindly indicate its recorded outcome. Item: ClC(Cl)c1ccccc1
**Result** inactive

**Query** Kindly indicate its recorded outcome. Item: COC(=O)Nc1cccc(OC(=O)Nc2cccc(C)c2)c1
**Result** inactive

**Query** Kindly indicate its recorded outcome. Item: Nc1ccc(-c2ccccc2)cc1
**Result** inactive

**Query** Kindly indicate its recorded outcome. Item: CCOP(=S)(OCC)Oc1nc(Cl)c(Cl)cc1Cl
**Result** inactive

---
**Query** Kindly indicate its recorded outcome. Item: Cc1cccc(N)c1C
**Result** inactive

**Query** Kindly indicate its recorded outcome. Item: CC12CC1(C)C(=O)N(c1cc(Cl)cc(Cl)c1)C2=O (configuration not stated)
**Result** inactive

Values were extracted from PubChem BioAssay (NCATS).
